B1: Retinoic acid receptor beta, residues 85 to 161; numbered along this chain, P10826 (parent)
chain: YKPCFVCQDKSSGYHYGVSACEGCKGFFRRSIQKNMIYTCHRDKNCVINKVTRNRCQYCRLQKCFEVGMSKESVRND

- Variants of: B1
- Measurement Description: abundance fitness (aPCA) (normalised: wild type 0, dead -1); higher = more abundant; growth selection in yeast, the domain comes from the species named
- Study Conditions: Homo sapiens
abundance fitness values by entry
Endpoint Label: abundance fitness

mutation_name=P3K result=0.048
mutation_name=F28C result=-0.895
mutation_name=N45W result=-0.302
mutation_name=Y16N result=-0.08
mutation_name=K34I result=-0.371
mutation_name=I37N result=0.043
mutation_name=N35T result=0.039
mutation_name=H41C result=-0.157
mutation_name=F5E result=-0.38
mutation_name=F27L result=-0.886
mutation_name=Y38T result=-0.173
mutation_name=D43I result=-0.038
mutation_name=C56I result=-1.05
mutation_name=F27Y result=-0.57
mutation_name=S12L result=-0.216
mutation_name=C4T result=-1.26
mutation_name=V6R result=-0.83
mutation_name=H41A result=-0.006
mutation_name=N49C result=-0.598
mutation_name=C46Q result=-1.01
mutation_name=C21E result=-0.575
mutation_name=R30S result=-0.644
mutation_name=M36V result=0.072
mutation_name=N54M result=0.216
mutation_name=I37Y result=-0.345
mutation_name=R53F result=0.057
mutation_name=Q57P result=0.141
mutation_name=E22A result=-0.209
mutation_name=V51I result=0.073
mutation_name=K50C result=-0.218
mutation_name=I48F result=-0.078
mutation_name=G17C result=-0.24
mutation_name=V18T result=0.103
mutation_name=G23V result=-0.149
mutation_name=S11Q result=-0.33

Cited source for all entries: the Human Domainome abundance scans (Beltran et al. 2025)
